Overview of reported IC50 across a group of compounds:
Target: humanP2X7 (Homo sapiens)
Construct: expressed in transfected cells; host or cells: HEK-293
Sequence (Q99572 1-595): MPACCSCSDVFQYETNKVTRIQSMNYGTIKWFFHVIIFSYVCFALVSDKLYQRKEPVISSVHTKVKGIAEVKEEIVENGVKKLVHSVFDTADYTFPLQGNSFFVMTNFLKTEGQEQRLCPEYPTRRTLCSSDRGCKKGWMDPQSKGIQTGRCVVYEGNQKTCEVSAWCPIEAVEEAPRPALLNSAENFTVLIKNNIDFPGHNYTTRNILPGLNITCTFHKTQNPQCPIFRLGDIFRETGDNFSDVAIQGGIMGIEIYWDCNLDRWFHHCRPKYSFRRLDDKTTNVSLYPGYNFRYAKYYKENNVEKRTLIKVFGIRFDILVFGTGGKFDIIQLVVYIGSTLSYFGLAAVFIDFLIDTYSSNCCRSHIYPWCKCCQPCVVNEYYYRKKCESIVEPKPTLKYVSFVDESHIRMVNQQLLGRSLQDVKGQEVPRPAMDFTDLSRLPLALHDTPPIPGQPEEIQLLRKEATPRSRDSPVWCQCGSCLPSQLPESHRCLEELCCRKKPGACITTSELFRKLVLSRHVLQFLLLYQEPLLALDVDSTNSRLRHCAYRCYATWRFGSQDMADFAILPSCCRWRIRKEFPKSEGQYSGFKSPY
Test: P2X7 channel calcium-influx assay (Fluo-8, FLIPR TETRA), human P2X7
Format: cell-based
Conditions: HEK-293 cells stably transfected with P2X7; Bz-ATP at EC80; low divalent cation buffer; read-out: humanP2X7 (activity range)
metric name: IC50

>>> measured("Cn1nc(Cc2c(F)cccc2Cl)n(CC2CCC(F)(F)C2)c1=O (stereo not shown)")
"200 to 1000 nM"
>>> measured("Cn1nc(Cc2ccccc2C(F)(F)F)n(CCC2CCC(F)(F)CC2)c1=O")
"200 to 1000 nM"
>>> measured("Cn1nc(Cc2ccccc2F)n(CCC2CCC(F)(F)CC2)c1=O")
"1000 to 10000 nM"
>>> measured("Cn1nc(Cc2ccccc2Cl)n(CC2CCCCCC2)c1=O")
"200 to 1000 nM"
>>> measured("CN1CCCCC1Cn1c(Cc2c(F)cccc2Cl)nn(C)c1=O (stereo not shown)")
"1000 to 10000 nM"
>>> measured("Cn1nc(Cc2c(F)cccc2Cl)n(CC2CCCO2)c1=O (stereo not shown)")
"10000 to 30000 nM"
>>> measured("Cn1nc(Cc2c(F)cccc2Cl)n(Cc2ccc(F)cc2)c1=O")
"1000 to 10000 nM"
>>> measured("Cn1nc(Cc2ccccc2C(F)(F)F)n(CC2CCC(C(F)(F)F)CC2)c1=O (stereo not shown)")
"< 200 nM"
>>> measured("Cn1nc(Cc2ccccc2C(F)(F)F)n(CC2CCCCCC2)c1=O")
"200 to 1000 nM"
>>> measured("O=c1n(CC(F)(F)F)nc(CC2CCCCCC2)n1Cc1c(F)cccc1Cl")
"200 to 1000 nM"
>>> measured("Cn1nc(Cc2ccccc2C(F)(F)F)n(CC2CCC(F)(F)C2)c1=O (stereo not shown)")
"1000 to 10000 nM"
>>> measured("Cn1nc(CC2CCCCC2)n(Cc2ccccc2C(F)(F)F)c1=O")
"1000 to 10000 nM"
>>> measured("O=c1n(Cc2ccccc2)nc(Cc2c(F)cccc2Cl)n1CC1CCC(F)(F)CC1")
"< 200 nM"
>>> measured("Cn1nc(Cc2ccccc2F)n(CC2CCCCCC2)c1=O")
"200 to 1000 nM"
>>> measured("Cn1nc(CC2CCCCC2)n(Cc2cc(-c3ncc(F)cn3)ccc2Cl)c1=O")
"200 to 1000 nM"
>>> measured("Cn1nc(CC2CCCCC2)n(Cc2ccnc(C(F)(F)F)c2)c1=O")
"10000 to 30000 nM"
>>> measured("O=c1n(CC(F)(F)F)nc(CC2CCC(F)(F)CC2)n1Cc1c(F)cccc1Cl")
"200 to 1000 nM"
>>> measured("O=c1n(CC(F)(F)F)nc(Cc2c(F)cccc2Cl)n1CC1CCCCCC1")
"< 200 nM"
>>> measured("O=c1n(CC(F)(F)F)nc(Cc2ccccc2Cl)n1CC1CCCCCC1")
"200 to 1000 nM"

---

target: UniProt Q99572; experiment: human P2X7 channel assay by automated patch-clamp (QPatch 16X); details: HEK-293 cells expressing P2X7; current evoked by 100 microM BzATP; whole-cell, held at -80 mV; read-out: human Q-Patch (activity range)
metric name: IC50

>>> measured("Cn1nc(CC2CCCCC2)n(Cc2ccnc(C(F)(F)F)c2)c1=O")
"1000 to 10000 nM"
>>> measured("O=c1n(CC2CC2)nc(Cc2c(F)cccc2Cl)n1CC1CCC(F)(F)CC1")
"10 to 100 nM"
>>> measured("Cn1nc(Cc2c(F)cccc2Cl)n(CCC2CCC(C)(C)CC2)c1=O")
"10 to 100 nM"
>>> measured("O=c1n(CCC(F)(F)F)nc(Cc2c(F)cccc2Cl)n1CC1CCC(F)(F)CC1")
"10 to 100 nM"
>>> measured("CCn1nc(CC2CCCCCC2)n(Cc2c(F)cccc2Cl)c1=O")
"100 to 1000 nM"

---

molecular target: mouseP2X7 (Mus musculus, UniProt Q9Z1M0); test: P2X7 channel calcium-influx assay (Fluo-8, FLIPR TETRA), mouse P2X7; details: HEK-293 cells stably transfected with P2X7; Bz-ATP at EC80; low divalent cation buffer; read-out: mouseP2X7 (activity range)
Sequence (Q9Z1M0 whole entry): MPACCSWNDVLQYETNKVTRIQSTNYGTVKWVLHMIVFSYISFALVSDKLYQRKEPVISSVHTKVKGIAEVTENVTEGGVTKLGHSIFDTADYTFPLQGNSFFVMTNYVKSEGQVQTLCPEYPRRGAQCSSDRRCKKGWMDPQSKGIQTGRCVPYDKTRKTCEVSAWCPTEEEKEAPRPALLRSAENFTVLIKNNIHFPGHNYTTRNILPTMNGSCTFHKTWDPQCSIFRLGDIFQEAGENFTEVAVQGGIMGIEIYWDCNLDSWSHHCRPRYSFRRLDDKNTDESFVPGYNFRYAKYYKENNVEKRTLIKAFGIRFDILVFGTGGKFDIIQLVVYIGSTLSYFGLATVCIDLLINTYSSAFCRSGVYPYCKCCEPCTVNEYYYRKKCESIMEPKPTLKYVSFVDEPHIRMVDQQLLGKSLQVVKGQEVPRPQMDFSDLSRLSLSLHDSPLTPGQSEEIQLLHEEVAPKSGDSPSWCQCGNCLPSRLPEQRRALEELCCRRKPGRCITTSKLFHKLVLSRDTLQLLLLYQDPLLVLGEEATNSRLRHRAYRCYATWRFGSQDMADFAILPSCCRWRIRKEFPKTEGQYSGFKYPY
metric name: IC50

>>> measured("Cn1nc(Cc2ccc(F)cc2Cl)n(CC2CCCCC2)c1=O")
"0.2 to 1 µM"
>>> measured("Cn1nc(Cc2ccccc2F)n(CC2CCC(F)(F)CC2)c1=O")
"1 to 10 µM"
>>> measured("Cn1nc(Cc2ccccc2F)n(CC2CCCCC2)c1=O")
"1 to 10 µM"
>>> measured("Cn1nc(Cc2ccccc2F)n(CC2CCC3(CC2)CC3)c1=O")
"1 to 10 µM"
>>> measured("Cn1nc(Cc2c(F)cccc2Cl)n(CCC2CCC(C)(C)CC2)c1=O")
"1 to 10 µM"
>>> measured("Cn1nc(Cc2c(F)cccc2Cl)n(CC2CCC(F)(F)CC2)c1=O")
"0.2 to 1 µM"
>>> measured("Cn1nc(Cc2ccccc2F)n(CC2CCC(C(F)(F)F)CC2)c1=O (stereo not shown)")
"1 to 10 µM"
>>> measured("Cn1nc(Cc2ccccc2C(F)(F)F)n(CC2CCC3(CC2)CC3)c1=O")
"1 to 10 µM"
>>> measured("Cn1nc(Cc2ccccc2F)n(CC2CCCCCC2)c1=O")
"0.2 to 1 µM"
>>> measured("Cn1nc(Cc2c(F)cccc2Cl)n(CC2CCC3(CC2)CC3)c1=O")
"< 0.2 µM"
>>> measured("Cn1nc(CC2CCCCC2)n(Cc2ccccc2C(F)(F)F)c1=O")
"10 to 30 µM"
>>> measured("Cn1nc(Cc2c(F)cccc2Cl)n(CC2CC3C(C2)C3(F)F)c1=O (stereo not shown)")
"1 to 10 µM"
>>> measured("O=c1n(CC(F)(F)F)nc(Cc2ccccc2Cl)n1CC1CCCCCC1")
"0.2 to 1 µM"
>>> measured("Cn1nc(Cc2c(F)cccc2Cl)n(CC2CCC(F)CC2)c1=O (stereo not shown)")
"0.2 to 1 µM"
>>> measured("Cn1nc(CC2CCCCC2)n(Cc2ccnc(C(F)(F)F)c2)c1=O")
"10 to 30 µM"
>>> measured("Cn1nc(Cc2c(F)cccc2Cl)n(CC2CCCCC2(C)C)c1=O (stereo not shown)")
"0.2 to 1 µM"
>>> measured("O=c1n(CC(F)(F)F)nc(CC2CCC(F)(F)CC2)n1Cc1c(F)cccc1Cl")
"1 to 10 µM"
>>> measured("O=c1n(CC2CC2)nc(Cc2c(F)cccc2Cl)n1CC1CCC(C(F)(F)F)CC1 (stereo not shown)")
"0.2 to 1 µM"
>>> measured("Cn1nc(Cc2ccccc2C(F)(F)F)n(CC2CCC(C(F)(F)F)CC2)c1=O (stereo not shown)")
"1 to 10 µM"

---

Target: ratP2X7 (Rattus norvegicus)
Sequence (Q64663 whole entry): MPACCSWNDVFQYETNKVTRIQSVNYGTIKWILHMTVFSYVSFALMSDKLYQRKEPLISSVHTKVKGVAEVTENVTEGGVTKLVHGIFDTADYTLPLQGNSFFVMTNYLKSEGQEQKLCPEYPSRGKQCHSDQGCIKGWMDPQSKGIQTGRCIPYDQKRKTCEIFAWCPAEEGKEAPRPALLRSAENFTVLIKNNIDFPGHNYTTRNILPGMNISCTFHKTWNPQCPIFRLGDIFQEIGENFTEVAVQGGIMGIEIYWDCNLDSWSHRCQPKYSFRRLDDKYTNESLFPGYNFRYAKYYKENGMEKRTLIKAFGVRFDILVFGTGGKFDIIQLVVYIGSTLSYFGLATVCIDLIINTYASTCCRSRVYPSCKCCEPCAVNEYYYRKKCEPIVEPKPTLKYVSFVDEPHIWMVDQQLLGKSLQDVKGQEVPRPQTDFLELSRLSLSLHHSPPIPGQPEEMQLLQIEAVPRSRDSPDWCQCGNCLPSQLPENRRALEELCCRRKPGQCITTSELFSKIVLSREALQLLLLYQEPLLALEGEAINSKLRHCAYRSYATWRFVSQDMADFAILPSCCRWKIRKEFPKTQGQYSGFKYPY
Test: P2X7 channel calcium-influx assay (Fluo-8, FLIPR TETRA), rat P2X7
Conditions: HEK-293 cells stably transfected with P2X7; Bz-ATP at EC80; low divalent cation buffer; read-out: ratP2X7 (activity range)
Experimental: Extracellular binding of Bz-ATP to P2X7 receptor opens the channel and allows Ca^2+ influx into the cells. This Ca^2+ entry was measured in HEK-293 cells stably transfected with P2X7 receptor using Screen Quest™ Fluo-8 No Wash Calcium Assay Kit (AAt Bioquest®, cat. 36316). […] Its fluorescence increases upon binding to calcium. When HEK-293/P2X7 cells are stimulated with Bz-ATP, Ca^2+ enters the cells and the fluorescence of Fluo-8 NW increases. […]
pIC50: −log10 of the molar value.
Overview of reported pIC50 across a group of compounds:
metric name: pIC50

>>> measured("Cn1nc(Cc2ccc(F)cc2Cl)n(CC2CCC3(CC2)CC3)c1=O")
"> 6.70"
>>> measured("Cn1nc(Cc2c(F)cccc2Cl)n(CCC2CCC(C)(C)CC2)c1=O")
"6.00 to 6.70"
>>> measured("Cn1nc(Cc2ccccc2F)n(CC2CCC(C(F)(F)F)CC2)c1=O (stereo not drawn)")
"> 6.70"
>>> measured("CCn1nc(Cc2c(F)cccc2Cl)n(CC2CCC(F)(F)CC2)c1=O")
"> 6.70"
>>> measured("Cn1nc(Cc2ccccc2C(F)(F)F)n(CC2CCC3(CC2)CC3)c1=O")
"> 6.70"
>>> measured("Cn1nc(CC2CCC(F)(F)CC2)n(Cc2c(F)cccc2Cl)c1=O")
"6.00 to 6.70"
>>> measured("Cn1nc(Cc2ccccc2F)n(CC2CCCCC2)c1=O")
"> 6.70"
>>> measured("Cn1nc(Cc2ccccc2C(F)(F)F)n(CC2CCC(C(F)(F)F)CC2)c1=O (stereo not drawn)")
"> 6.70"
>>> measured("O=c1n(Cc2ccccc2)nc(Cc2c(F)cccc2Cl)n1CC1CCC(F)(F)CC1")
"> 6.70"
